- SYSTEM UNDER TEST: human kinase Mps-1 (Homo sapiens)
- Construct: N-terminally GST-tagged human full length recombinant Mps-1 kinase; GST (N)
- Sequence (P33981 whole entry): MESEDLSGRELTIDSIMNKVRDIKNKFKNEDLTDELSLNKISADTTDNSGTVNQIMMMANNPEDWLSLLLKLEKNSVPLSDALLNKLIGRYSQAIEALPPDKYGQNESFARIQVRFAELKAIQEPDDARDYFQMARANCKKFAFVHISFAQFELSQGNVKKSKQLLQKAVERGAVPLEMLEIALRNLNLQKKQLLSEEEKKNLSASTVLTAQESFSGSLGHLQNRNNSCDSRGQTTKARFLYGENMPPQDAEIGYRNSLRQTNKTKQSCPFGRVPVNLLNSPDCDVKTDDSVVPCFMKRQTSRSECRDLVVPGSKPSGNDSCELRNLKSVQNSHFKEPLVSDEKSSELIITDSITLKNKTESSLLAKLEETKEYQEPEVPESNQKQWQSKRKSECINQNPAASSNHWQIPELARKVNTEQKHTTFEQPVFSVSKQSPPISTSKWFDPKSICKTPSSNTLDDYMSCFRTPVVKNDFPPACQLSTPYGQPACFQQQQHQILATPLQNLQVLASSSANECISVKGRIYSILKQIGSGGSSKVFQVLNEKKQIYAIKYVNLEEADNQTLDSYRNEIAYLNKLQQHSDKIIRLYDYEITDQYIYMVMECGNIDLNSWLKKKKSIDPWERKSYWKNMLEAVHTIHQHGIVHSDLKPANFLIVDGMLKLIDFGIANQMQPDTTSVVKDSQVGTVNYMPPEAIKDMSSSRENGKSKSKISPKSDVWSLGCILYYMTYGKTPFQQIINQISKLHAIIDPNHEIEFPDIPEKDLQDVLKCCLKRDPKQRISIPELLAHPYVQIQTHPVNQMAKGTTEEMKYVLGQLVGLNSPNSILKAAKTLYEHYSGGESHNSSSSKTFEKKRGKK
- MEASUREMENT DESCRIPTION: Mps-1 kinase assay (TR-FRET)
- APPLIED CONDITIONS: N-terminally GST-tagged human full length recombinant Mps-1; 10 μM ATP; 1 μM peptide substrate; 15 min pre-incubation; 60 min at 22° C.
PARAMETER MEASURED: IC50 (nM)

Some solved cases for reference:
>>> experimental_value("Cc1cc(-c2cnc3c(NCCC(F)(F)F)nc(-c4ccc(F)c(CO)c4)cn23)ccc1C(=O)NC1CC1")
1.1
>>> experimental_value("NS(=O)(=O)CCNc1nc(-c2ccccc2)cn2c(-c3ccc(C(=O)NC4CC4)cc3)cnc12")
1
>>> experimental_value("CC(C)CNc1nc(-c2cccc(C(=O)NC3CC3)c2)cn2c(-c3ccc(C(=O)NC4CC4)cc3)cnc12")
1.6
>>> experimental_value("CC(C)CNc1nc(-c2cccc(C(=O)N(C)C)c2)cn2c(-c3ccc(C(=O)NC4CC4)cc3)cnc12")
8.1

P. Cn1cc(CNc2nc(-c3ccccc3)cn3c(-c4ccc(C(=O)NC5CC5)cc4)cnc23)cn1
Q. CC(C)CNc1nc(-c2ccccc2)c(Cl)n2c(-c3ccc(C(=O)NC4CC4)cc3)cnc12
R. O=C(NC1CC1)c1ccc(-c2cnc3c(NCCOCC(F)(F)F)nc(-c4ccccc4)cn23)cc1
Kindly order the items shown according to IC50, from the highest value down. A complete answer lists every label in the requested sequence.
Q, R, P
(Q: 10.7 nM, R: 3.6 nM, P: 1.3 nM)
